Just for reference, paper PMC5540273 is where these values come from.

Tested on: PIM3
Conditions: concentration: 1 μM, replicates: in singlicate; n = 1;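 also: KINOMEscan kinase panel screen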
Exercise: state measured %Inh for each of the molecules provided.

CSc1ccc(NC2=C(c3ccc(Cl)cc3)C(=O)NC2=O)cc1: 12%
O=C(O)C(F)(F)F.O=c1[nH]ccc2nc(N[C@@H]3CCNC3)nc(Nc3cc(Cl)cc(Cl)c3)c12: 66%
CN(C)CCOc1ccc(-c2cc(-c3ccc(Cl)c(O)c3)c(-c3ccncc3)[nH]2)cc1.Cl.Cl: 13%

Could you tell me %Inh for each of these molecules? They are listed below.
1. Cc1ccc(O)cc1Nc1ccnc2cc(-c3ccc(CN4CCCCC4)o3)ccc12
2. Cn1cc(-c2ccc3c(c2)CCN3C(=O)Cc2cc(F)cc(C(F)(F)F)c2)c2c(N)ncnc21
3. Fc1cc(Cl)ccc1Nc1ccnc2cc(-c3ccc(CN4CCSCC4)o3)ccc12
4. CN(C)CCNS(=O)(=O)c1ccc(-c2ccnc3[nH]ccc23)cc1
5. COc1cccc(CC(=O)N2CCc3cc(-c4cn(C)c5ncnc(N)c45)ccc32)c1
6. COC(=O)Nc1nc2cc(Oc3ccc(NC(=O)Nc4cccc(SC)c4)cc3)ccc2[nH]1.Cl
7. CN(c1ccc2c(c1)nc(NCc1ccccc1)n2C)c1ccnc(Nc2ccc(CS(C)(=O)=O)cc2)n1.Cl
8. COc1cc(Nc2nccc(N3CCC(NC(=O)Nc4ccc5c(c4)OCO5)C3)n2)cc(OC)c1OC (stereo not drawn)

1. 7%
2. 6%
3. 0%
4. 0%
5. 2%
6. 0%
7. 0%
8. 0%

Consider the molecule shown here: O=C(Nc1n[nH]c2cc(-c3cccs3)ccc12)C1CC1 What is its recorded %Inh?
0%

----------
Tested on: SIK2
Conditions: concentration: 1 μM, replicates: in singlicate; n = 1
parameterMeasured: %Inh (%)
Answers are plain numbers, in %.

Cn1cc(-c2cnc(N)c3c(-c4ccc5c(c4)CCN5C(=O)Cc4ccccc4)csc23)cn1: 9
Cc1cccc(Nc2nc(NCCN)ncc2C(N)=O)c1: 52
Cl.O=C(Nc1ccc(Oc2ccc3[nH]c(NC(=O)c4ccco4)nc3c2)cc1)Nc1cc(C(F)(F)F)ccc1F: 0
COc1cccc(-c2nc(-c3ccccc3)[nH]c2-c2ccncc2)c1: 0
COC(=O)Nc1nc2ccc(Oc3ccc(CC(=O)Nc4cc(C(F)(F)F)ccc4F)cc3)cc2[nH]1: 0

For every record below, what is its %Inh?
1. CSc1ccc(NC2=C(c3ccc(Cl)cc3)C(=O)NC2=O)cc1
2. CC(C)(C)c1ccc(C(=O)Nc2cn3cc(-n4ccnc4)ccc3n2)cc1
3. Nc1cccc(-c2ccc3c(N)n[nH]c3c2)c1
4. CCn1cnc2c(NCc3ccccc3)ncnc21
5. CNc1nccc(-c2ccc3c(N)n[nH]c3c2)n1
6. Cc1ccc(O)cc1Nc1ccnc2cc(-c3ccc(CN4CCCCC4)o3)ccc12

1. 9
2. 10
3. 0
4. 0
5. 9
6. 83

----------
System: CHEK2
Conditions: concentration: 1 μM, replicates: in singlicate; n = 1
parameterMeasured: %Inh (%)
Numbers only, in %.

For orientation, consider the following solved cases.
CCn1cnc2c(NCc3ccccc3)ncnc21: 0
Cc1ccc(NC(=O)c2cccc(N3CCCCC3)c2)cc1-c1ccc(C(=O)NCC2CC2)cc1: 0
COc1cccc(CC(=O)N2CCc3cc(-c4cn(C)c5ncnc(N)c45)ccc32)c1: 0
CNc1nccc(-c2ccc3c(N)n[nH]c3c2)n1: 51
CN1CCN(Cc2ccc(NC(=O)Nc3ccc(N(C)c4ccnc(Nc5ccc(CS(C)(=O)=O)cc5)n4)cc3)cc2)CC1.Cl: 78

Record %Inh for all entries; do not skip any.
1. Cc1ccc(O)cc1Nc1ccnc2ccc(C(C)(C)C)cc12
2. CC(C)(C)c1ccc(C(=O)Nc2cn3cc(-n4ccnc4)ccc3n2)cc1

[3, 0]
